target: mu opiate receptor (MOR) (Rattus norvegicus, UniProt P33535); construct: from tissue; host or cells: striatum (membrane preparation); type: biochemical
Sequence (P33535 whole entry): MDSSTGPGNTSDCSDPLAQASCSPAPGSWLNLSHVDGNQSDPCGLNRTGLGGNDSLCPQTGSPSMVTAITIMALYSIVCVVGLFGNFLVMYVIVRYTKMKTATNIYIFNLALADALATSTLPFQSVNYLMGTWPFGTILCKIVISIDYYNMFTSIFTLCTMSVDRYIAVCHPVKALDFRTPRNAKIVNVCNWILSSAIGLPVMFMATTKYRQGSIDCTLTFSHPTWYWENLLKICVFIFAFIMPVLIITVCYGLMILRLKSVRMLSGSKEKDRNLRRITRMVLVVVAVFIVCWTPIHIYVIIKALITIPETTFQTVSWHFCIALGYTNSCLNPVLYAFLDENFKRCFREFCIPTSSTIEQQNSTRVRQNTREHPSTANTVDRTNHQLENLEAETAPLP
assayReadout: Concentration of FLNA-Binding Compound as Agonist 1 μM
# do not omit the unit; it follows the number

molecule	endpointResult
NS(=O)(=O)c1ccc(S(=O)(=O)N2CCC3(CC2)OCCN3S(=O)(=O)c2ccc(S(N)(=O)=O)cc2)cc1	167.9%

*Q* Entry CC1CCC(C(C)C)C(OCC(O)Cn2ccc3ccccc32)C1 (stereo not shown) , system mu opiate receptor (MOR) (Rattus norvegicus, UniProt P33535): what Concentration of FLNA-Binding Compound as Agonist 1 μM was measured?
*A* 289.9%

*Q* Entry CC1CCC(C(C)C)C(OCC(O)CN2CCC(=O)C(C)C2)C1 (stereo not shown) , system mu opiate receptor (MOR) (Rattus norvegicus, UniProt P33535): what Concentration of FLNA-Binding Compound as Agonist 1 μM was measured?
*A* 129.6%

*Q* Entry COc1ccc(S(=O)(=O)N2CCC3(CC2)OCCN3S(=O)(=O)c2ccc(C(C)=O)cc2)cc1 , system mu opiate receptor (MOR) (Rattus norvegicus, UniProt P33535): what Concentration of FLNA-Binding Compound as Agonist 1 μM was measured?
*A* 245.3%
